- measurement protocol: Cytotoxicity against human HK2 cells assessed as cell viability after 72 hrs by MTT assay
- Type: cell-based, HK-2
- measurement context: read-out: TC50
assay readout: CC50 at 72 h (µM)
Kindly provide the numeric value in µM only, without the unit symbol.

# example entries with known answers
{"columns": ["compound", "assay readout", "unit descriptor", "endpoint result"],
 "data": [
  ["C=C(C#N)C(O)c1ccc(Cl)cc1Cl (stereo not drawn)", "CC50 at 72 h", "µM", 36.4],
  ["C=C(C(=O)OCC)C(O)c1ccccc1Cl (stereo not drawn)", "CC50 at 72 h", "µM", 67],
  ["CCOC(=O)C(C)C(O)c1ccccc1Cl (stereo not drawn)", "CC50 at 72 h", "µM", 75.5]
]}

[in] Query: CC50 at 72 h; subject: C=C(C(=O)OCC)C(O)c1ccccn1 (stereo not drawn)
[out] 53.4

[in] Query: CC50 at 72 h; subject: C=C(C(=O)OCC)C(O)c1c(Cl)cccc1Cl (stereo not drawn)
[out] 45.2

[in] Query: CC50 at 72 h; subject: C=C(C#N)C(O)c1ccccc1[N+](=O)[O-] (stereo not drawn)
[out] 3.6

[in] Query: CC50 at 72 h; subject: C=C(C(=O)OCC)C(O)c1ccc(Cl)cc1Cl (stereo not drawn)
[out] 70.5

[in] Query: CC50 at 72 h; subject: C=C(C(=O)OCC)C(O)c1ccc(Cl)cc1 (stereo not drawn)
[out] 34.9

[in] Query: CC50 at 72 h; subject: C=C(C#N)C(O)c1ccccc1 (stereo not drawn)
[out] 22.3

[in] Query: CC50 at 72 h; subject: C=C(C(=O)OCC)C(O)c1ccccc1F (stereo not drawn)
[out] 25.4

[in] Query: CC50 at 72 h; subject: C=C1C(=O)O[C@@H]2C3O[C@]3(C)CC/C=C(\C)CC[C@@H]12 (stereo partly drawn)
[out] 20.1

---

Recorded measurements of log10 of CC50 at 72 h, one per entry
- measurement protocol: Cytotoxicity against human HK2 cells assessed as cell viability after 72 hrs by MTT assay
- Assay type: cell-based, HK-2
- measurement context: read-out: TC50
Please note: log10 values; quantity CC50 at 72 h; unit µM.

# example entries with known answers
{"columns": ["compound", "log10 of CC50 at 72 h"],
 "data": [
  ["C=C(C#N)C(O)c1c(Cl)cccc1Cl (stereo unspecified)", 1.21],
  ["C=C(C#N)C(O)c1ccccc1Br (stereo unspecified)", 1.34],
  ["C=C(C#N)C(O)c1cccc2ccccc12 (stereo unspecified)", 1.00],
  ["C=C(C(=O)CC)C(O)c1ccccc1Cl (stereo unspecified)", 0.28],
  ["C=C(C(=O)OCC)C(O)c1ccccc1C (stereo unspecified)", 1.75]
]}

[in] Query: log10 of CC50 at 72 h; subject: CCOC(=O)/C(=C\I)C(O)c1ccccc1Cl (stereo unspecified)
[out] 0.77

[in] Query: log10 of CC50 at 72 h; subject: C=C(C(=O)OCC)C(O)c1ccccc1Br (stereo unspecified)
[out] 1.75

[in] Query: log10 of CC50 at 72 h; subject: C=C(C(=O)OCC)C(O)c1ccccc1 (stereo unspecified)
[out] 1.81

[in] Query: log10 of CC50 at 72 h; subject: C=C(C(=O)OCC)C(C)O (stereo unspecified)
[out] 1.35
